target: 5-hydroxytryptamine receptor 7 (Homo sapiens)
Sequence (P34969 whole entry): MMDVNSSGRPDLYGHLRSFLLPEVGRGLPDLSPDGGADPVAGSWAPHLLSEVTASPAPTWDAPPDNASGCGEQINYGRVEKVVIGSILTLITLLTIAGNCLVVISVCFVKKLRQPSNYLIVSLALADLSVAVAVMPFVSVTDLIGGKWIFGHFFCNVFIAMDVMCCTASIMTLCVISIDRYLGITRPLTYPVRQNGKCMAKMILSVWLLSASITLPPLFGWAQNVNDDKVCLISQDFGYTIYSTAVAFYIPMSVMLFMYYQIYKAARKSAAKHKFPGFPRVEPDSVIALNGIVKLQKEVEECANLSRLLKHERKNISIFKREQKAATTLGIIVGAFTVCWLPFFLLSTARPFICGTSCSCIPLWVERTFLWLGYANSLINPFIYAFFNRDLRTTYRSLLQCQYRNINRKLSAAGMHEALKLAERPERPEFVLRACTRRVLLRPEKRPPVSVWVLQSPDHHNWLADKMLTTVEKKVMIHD
pKi: −log10 of the molar value.
Values of pKi greater than or equal to 8 map to MET; values below map to NOT MET.

compound	test.target	category.label
O=C1Cc2ccccc2N1CCCCCCN1CCc2ccccc2C1	5-hydroxytryptamine receptor 7 (Homo sapiens)	NOT MET
O=C1Cc2ccccc2N1CC/C=C/CCN1CC[C@H]2CCCC[C@@H]2C1 (racemic)	5-hydroxytryptamine receptor 7 (Homo sapiens)	MET
O=C1Cc2ccccc2N1CC/C=C/CCN1CCc2ccccc2C1	5-hydroxytryptamine receptor 7 (Homo sapiens)	MET
O=C1Cc2ccccc2N1CCCCN1CC[C@H]2CCCC[C@@H]2C1 (racemic)	5-hydroxytryptamine receptor 7 (Homo sapiens)	NOT MET
O=C1Cc2ccccc2N1CCCCCN1CC[C@H]2CCCC[C@@H]2C1 (racemic)	5-hydroxytryptamine receptor 7 (Homo sapiens)	NOT MET
O=C1Cc2ccccc2N1CCCCCCCN1CC[C@H]2CCCC[C@@H]2C1 (racemic)	5-hydroxytryptamine receptor 7 (Homo sapiens)	NOT MET
O=C1Cc2ccccc2N1CCCCCCCN1CCc2ccccc2C1	5-hydroxytryptamine receptor 7 (Homo sapiens)	NOT MET
O=C1Cc2ccccc2N1CCCCCN1CCc2ccccc2C1	5-hydroxytryptamine receptor 7 (Homo sapiens)	NOT MET
